Biological target: 5-hydroxytryptamine receptor 2A (Homo sapiens, UniProt P28223)
Sequence (P28223 whole entry): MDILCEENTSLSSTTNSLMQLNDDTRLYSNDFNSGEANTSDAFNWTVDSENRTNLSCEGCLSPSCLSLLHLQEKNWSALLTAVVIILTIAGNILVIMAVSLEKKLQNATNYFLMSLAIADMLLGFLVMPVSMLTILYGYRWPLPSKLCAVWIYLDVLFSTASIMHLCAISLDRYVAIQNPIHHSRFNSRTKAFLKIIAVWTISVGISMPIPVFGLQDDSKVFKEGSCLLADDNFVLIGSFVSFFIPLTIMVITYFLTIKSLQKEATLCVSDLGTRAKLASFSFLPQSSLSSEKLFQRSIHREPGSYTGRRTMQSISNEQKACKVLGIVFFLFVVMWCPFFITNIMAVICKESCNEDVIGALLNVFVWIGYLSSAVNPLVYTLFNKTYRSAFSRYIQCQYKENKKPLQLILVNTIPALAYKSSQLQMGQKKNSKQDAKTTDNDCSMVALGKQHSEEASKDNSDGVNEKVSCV
Experiment: biochemical
Format: cell-based, GF6
quantity.measured: Ki (nM)
Numbers only, in nM.

Ask: Could you share which Ki value was measured for "CCCCCCCCCOc1ccc2[nH]cc(CCN)c2c1" ?
Reply: 260

###

Biological target: 5-hydroxytryptamine receptor 2C (Rattus norvegicus)
Sequence (P08909 whole entry): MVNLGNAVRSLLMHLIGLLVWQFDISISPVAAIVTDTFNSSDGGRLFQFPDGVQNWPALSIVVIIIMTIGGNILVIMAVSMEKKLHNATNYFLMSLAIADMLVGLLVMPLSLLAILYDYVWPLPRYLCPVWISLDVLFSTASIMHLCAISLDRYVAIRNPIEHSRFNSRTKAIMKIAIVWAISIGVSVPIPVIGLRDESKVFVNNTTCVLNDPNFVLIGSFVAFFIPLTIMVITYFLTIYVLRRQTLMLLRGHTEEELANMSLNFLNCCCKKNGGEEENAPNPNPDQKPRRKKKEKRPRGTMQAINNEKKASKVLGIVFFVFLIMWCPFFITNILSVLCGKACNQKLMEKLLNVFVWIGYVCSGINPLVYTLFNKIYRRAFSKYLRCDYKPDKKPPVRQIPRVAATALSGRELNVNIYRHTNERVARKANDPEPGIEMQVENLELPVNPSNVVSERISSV
Test: Binding affinity was measured on 5-hydroxytryptamine 2C receptor in J1 cells transfected with rat 5-HT2C gene labeled with [3H]mesulergine
quantity.measured: pKi
Answers are plain numbers, as −log10 of the molar value.

Ask: Could you share which pKi value was measured for "CCCCCCCCCOc1ccc2[nH]cc(CCN)c2c1" ?
Reply: 6.57

###

Target: 5-hydroxytryptamine receptor 1D (Homo sapiens, UniProt P28221)
Sequence (P28221 whole entry): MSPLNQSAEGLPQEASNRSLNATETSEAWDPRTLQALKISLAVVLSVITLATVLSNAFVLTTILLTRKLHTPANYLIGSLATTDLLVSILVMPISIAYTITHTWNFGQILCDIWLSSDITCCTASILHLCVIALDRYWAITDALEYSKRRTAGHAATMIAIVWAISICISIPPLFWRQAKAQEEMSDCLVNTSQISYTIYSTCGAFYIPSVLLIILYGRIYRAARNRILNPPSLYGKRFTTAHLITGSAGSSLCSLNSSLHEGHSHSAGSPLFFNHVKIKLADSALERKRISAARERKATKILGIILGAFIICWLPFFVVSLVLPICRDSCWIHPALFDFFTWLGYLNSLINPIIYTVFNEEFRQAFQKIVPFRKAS
Assay: Binding affinity was measured on 5-hydroxytryptamine 1D receptor alpha in COS cells transfected with human 5-HT1D alpha gene labeled with [3H]5-HT
quantity.measured: Ki (nM)
Answers are plain numbers, in nM.

Ask: Could you share which Ki value was measured for "CCCCCCCCCOc1ccc2[nH]cc(CCN)c2c1" ?
Reply: 16

###

Molecular target: UniProt P28564
Sequence (P28564 whole entry): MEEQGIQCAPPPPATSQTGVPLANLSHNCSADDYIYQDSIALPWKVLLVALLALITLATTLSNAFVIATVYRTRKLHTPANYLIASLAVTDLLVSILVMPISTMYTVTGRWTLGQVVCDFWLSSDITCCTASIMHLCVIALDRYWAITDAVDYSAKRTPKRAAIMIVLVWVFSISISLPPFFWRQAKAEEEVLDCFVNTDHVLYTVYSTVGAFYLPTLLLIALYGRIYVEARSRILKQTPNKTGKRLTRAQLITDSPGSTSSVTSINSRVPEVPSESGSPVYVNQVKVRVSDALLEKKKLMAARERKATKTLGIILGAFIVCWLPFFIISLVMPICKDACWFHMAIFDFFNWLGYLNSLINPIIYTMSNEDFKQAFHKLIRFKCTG
quantity.measured: Ki (nM)
One number for each entry, in nM.

Ask: Could you share which Ki value was measured for "CCCCCCCCCOc1ccc2[nH]cc(CCN)c2c1" ?
Reply: 13

###

Could you please report measured pKi for the items listed next?
Molecular target: Serotonin 3 (5-HT3) receptor (Rattus norvegicus, UniProt P35563+Q9JJ16)
Sequence (P35563 whole entry): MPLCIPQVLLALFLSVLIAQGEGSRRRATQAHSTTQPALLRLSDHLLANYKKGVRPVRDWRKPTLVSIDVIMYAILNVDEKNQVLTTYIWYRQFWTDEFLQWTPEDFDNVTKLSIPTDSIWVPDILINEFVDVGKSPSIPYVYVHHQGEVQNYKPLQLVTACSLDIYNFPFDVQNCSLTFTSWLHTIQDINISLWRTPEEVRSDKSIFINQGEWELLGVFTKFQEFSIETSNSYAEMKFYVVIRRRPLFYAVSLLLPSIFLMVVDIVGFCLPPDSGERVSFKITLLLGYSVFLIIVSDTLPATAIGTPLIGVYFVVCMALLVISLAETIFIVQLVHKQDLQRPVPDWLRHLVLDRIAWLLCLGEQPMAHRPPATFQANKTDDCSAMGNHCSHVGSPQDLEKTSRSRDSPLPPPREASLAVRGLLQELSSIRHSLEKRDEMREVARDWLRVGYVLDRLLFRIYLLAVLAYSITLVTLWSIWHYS
Sequence (Q9JJ16 whole entry): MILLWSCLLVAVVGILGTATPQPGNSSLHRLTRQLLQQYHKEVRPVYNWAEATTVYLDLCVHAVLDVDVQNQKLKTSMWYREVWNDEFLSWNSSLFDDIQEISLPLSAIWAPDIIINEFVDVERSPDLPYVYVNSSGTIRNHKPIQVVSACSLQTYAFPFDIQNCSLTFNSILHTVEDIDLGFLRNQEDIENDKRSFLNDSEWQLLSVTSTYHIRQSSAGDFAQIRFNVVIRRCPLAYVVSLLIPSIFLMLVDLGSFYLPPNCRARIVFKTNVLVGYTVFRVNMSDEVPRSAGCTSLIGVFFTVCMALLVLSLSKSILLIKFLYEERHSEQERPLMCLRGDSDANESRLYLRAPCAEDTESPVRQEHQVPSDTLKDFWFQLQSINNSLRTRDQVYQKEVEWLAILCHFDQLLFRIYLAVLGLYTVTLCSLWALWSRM
Assay: Binding affinity was measured on 5-hydroxytryptamine 3 receptor in NG-108 cells labeled with [3H]GR-65630
pKi: −log10 of the molar value.

sample.smiles | pKi
CNS(=O)(=O)Cc1ccc2[nH]cc(CCN(C)C)c2c1 | < 6.00

Ask: Could you share which pKi value was measured for "CCCCCCCCCOc1ccc2[nH]cc(CCN)c2c1" ?
Reply: < 6.00
